Please respond with reported growth inhibition for every item in the list.
Test system: Plasmodium falciparum NF54
assay.details: growth inhibition relative to untreated control; higher = more inhibition
condition.details: 5 µM; minimal medium (MM); 72 h

Input CCN(CC)CCCCCCNc1cc(OC)cc2c(C)ccnc12 , output reported growth inhibition.
91.2%

Input COc1ccc(-c2onc(C(F)(F)F)c2-c2ccc(Cl)cc2)c(O)c1 , output reported growth inhibition.
97.5%

Input CC1CS(=O)(=O)CCN1/N=C/c1ccc([N+](=O)[O-])o1 (configuration not stated) , output reported growth inhibition.
< 0%

Input O=C([C@@H](c1ccc(Cl)cc1)c1cccnc1)N1CCN(c2ccc(C(F)(F)F)cc2)CC1 , output reported growth inhibition.
7.9%

Input O=C(c1ccc(NCCO)cc1)C1C[C@H]1c1ccc(Cl)cc1 (some centres not stated) , output reported growth inhibition.
89%

Input COC(=O)c1c(NC(=O)c2c(F)c(F)c(F)c(F)c2F)sc2c1CCCCC2 , output reported growth inhibition.
< 0%

Input Cc1nn(C(=O)Nc2cccc(C(F)(F)F)c2)c(C)c1Sc1ncccn1 , output reported growth inhibition.
39.2%

Input COc1cccc(CC(=O)N2CCC(n3c(C)nc4ccc(F)cc43)CC2)c1 , output reported growth inhibition.
95.6%

Input O=C(C1CCN(c2nnnn2-c2ccccc2)CC1)N1CCc2ccccc2C1 , output reported growth inhibition.
< 0%

Input Cc1cc(C(=O)Nc2cnn(Cc3ccc(Cl)cc3Cl)c2)no1 , output reported growth inhibition.
87.4%

Input Cc1ccc(NC(=O)CC2COc3ccccc3O2)cc1Cl (configuration not stated) , output reported growth inhibition.
< 0%

Input CC(C)(C)C(=O)N(CCCCCCN1C[C@H](O)[C@@H](O)[C@H](O)[C@H]1CO)C1CCCCCC1 , output reported growth inhibition.
< 0%

Input CCCCS(=O)(=O)Nc1ccc2cnn(C)c2c1 , output reported growth inhibition.
1.13%

Input FC(F)(F)c1cccc(-c2nc3c(NCc4ccncc4)nccc3[nH]2)c1 , output reported growth inhibition.
96%

Input Cc1cc(Cl)c(S(=O)(=O)N2CCCC2)cc1OCC(=O)NC1CCCCC1 , output reported growth inhibition.
59.9%

Input COc1cc(C2=NCCN2)ccc1-n1cc(-c2cccc(C3=NCCN3)c2)nn1 , output reported growth inhibition.
19.2%

Input Cn1ccnc1CNCCS(=O)(=O)c1cccc(Nc2ccc(-c3cccc(F)c3)cn2)c1 , output reported growth inhibition.
3.75%

Input Cc1ccc(-c2nc(CN(Cc3ccccn3)C(C)C)cs2)o1 , output reported growth inhibition.
49.2%

Input COc1ccc(C2=NCCN2)cc1-c1cn(-c2cccc(C3=NCCN3)c2)nn1 , output reported growth inhibition.
91.6%

Input O=C(Nc1nnc(S)s1)c1cc(Br)ccc1Cl , output reported growth inhibition.
< 0%

Input c1ccc(Oc2ccc(-c3cc(N4CCNCC4)[nH]n3)cc2)cc1 , output reported growth inhibition.
34.4%

Input O=C(Nc1ccc(N2CCNCC2)nc1)c1oc(-c2ccccc2)nc1C(F)(F)F , output reported growth inhibition.
89.9%
